Biological target: Zinc finger protein mex-5 (Caenorhabditis elegans)
Experiment: MEX-5 RNA-binding inhibition confirmation – biochemical, C. elegans, fluorescence polarization, dose retest (AID 449745);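 further: potency is for blocking Mex-5 binding to labeled TCR2 RNA like unlabeled competitor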
Settings: Mex-5 / TCR-2 RNA binding
Inconclusive results are not listed. Activity calls are given as the source filed them. How the calls were made is not given here.
readout-name: AC50

Completed entries (count: 10):
{"columns": ["molecule", "target-or-system", "observed-value"],
 "data": [
  ["CCCCCCNC(=O)C(C#N)c1nc2ccccc2nc1N1CCOCC1 (configuration not stated)", "Zinc finger protein mex-5 (Caenorhabditis elegans)", "13.3 µM"],
  ["COc1ccccc1N1C(C)=CC(=C(C#N)c2nc3ccccc3s2)C=C1C", "Zinc finger protein mex-5 (Caenorhabditis elegans)", "13.4 µM"],
  ["CC(=O)Nc1ccc(N2C(=O)c3cccc4c(O)ccc(c34)C2=O)cc1", "Zinc finger protein mex-5 (Caenorhabditis elegans)", "3.81 µM"],
  ["CCCCOc1ccc(-c2cc(C(F)(F)F)c(C#N)c(SCC(=O)O)n2)cc1", "Zinc finger protein mex-5 (Caenorhabditis elegans)", "11.8 µM"],
  ["CCCCCC#CCC#CCC#CCC#CCCCC(=O)O", "Zinc finger protein mex-5 (Caenorhabditis elegans)", "6.71 µM"],
  ["Cn1c(=O)c2[nH]c(-c3ccccc3)c(O)c2n(C)c1=O", "Zinc finger protein mex-5 (Caenorhabditis elegans)", "0.895 µM"],
  ["COc1ccc(Cn2c(O)c(/C=N/NC(=O)c3ccccc3O)c(=O)[nH]c2=O)cc1", "Zinc finger protein mex-5 (Caenorhabditis elegans)", "6.41 µM"],
  ["COc1ccc(C(=O)N2C(=S)NC(=O)/C2=C\\c2ccc(C)cc2)cc1", "Zinc finger protein mex-5 (Caenorhabditis elegans)", "> 38 µM (inactive)"],
  ["O=C1c2cccc3c(N4CCCCC4)ccc(c23)C(=O)N1c1ccccc1O", "Zinc finger protein mex-5 (Caenorhabditis elegans)", "28.7 µM"],
  ["Cc1ccc(C2C(C(=O)c3cccs3)=C(O)C(=O)N2c2nnc(C)s2)cc1 (configuration not stated)", "Zinc finger protein mex-5 (Caenorhabditis elegans)", "2.43 µM"]
]}

Query O=C(/C=C/c1ccc(O)c(O)c1)OC1C(O)CC(OC(=O)/C=C/c2ccc(O)c(O)c2)(C(=O)O)CC1O (configuration not stated) yields AC50 of 15.9 µM

Query "O=C(O)CCCC(=O)NNc1nc(-c2ccccc2)c2cc(Cl)ccc2n1" yields AC50 of 13.3 µM

Query "COc1ccc2c(c1)c1nc3ccccc3nc1n2Cc1ccc(OC(C)C)c(OC)c1" yields AC50 of 24.3 µM

Query "Cc1ccc(/C=C2/NC(=O)N(Cc3ccccc3)C2=O)s1" yields AC50 of > 38 µM (inactive)

Query CCOC(=O)c1ccc(-c2ccc(/C=C(\C#N)C(=O)NCC3CCCO3)o2)cc1 (configuration not stated) yields AC50 of > 38 µM (inactive)

Query Cc1ccc(C)n1C(Cc1ccccc1)C(=O)O (configuration not stated) yields AC50 of 8.84 µM

Query "CCOc1cc(/C=C2\C(=O)N(c3cccc(C(=O)O)c3)N=C2C(F)(F)F)ccc1OCC(=O)Nc1ccccc1OC" yields AC50 of 8.68 µM

Query "O=C(CCN1C(=O)/C(=C/c2ccco2)SC1=S)Nc1ccc(C(=O)O)c(O)c1" yields AC50 of 30.6 µM

Query "CN1C(=O)C(=Cc2sc(=O)n(-c3ccccc3)c2N(C)C)C(=O)N(C)C1=O" yields AC50 of > 38 µM (inactive)

Query "CC(C)OC(=O)c1c2c(n3ccccc13)C(=O)c1ccccc1C2=O" yields AC50 of 19.1 µM

Query "COc1ccccc1C(=O)Oc1ccc2c(c1)O/C(=C\c1ccncc1)C2=O" yields AC50 of 10.8 µM

Query "O=S(=O)(O)c1cccc2c(N=Nc3ccc(O)c4ncccc34)cccc12" yields AC50 of 3.04 µM
